The origin of these recorded values is the kinase profiling compilation of Christmann-Franck et al. (2016).

Molecular target: MST4 (human) (UniProt Q9P289)
Sequence (Q9P289 whole entry, looked up): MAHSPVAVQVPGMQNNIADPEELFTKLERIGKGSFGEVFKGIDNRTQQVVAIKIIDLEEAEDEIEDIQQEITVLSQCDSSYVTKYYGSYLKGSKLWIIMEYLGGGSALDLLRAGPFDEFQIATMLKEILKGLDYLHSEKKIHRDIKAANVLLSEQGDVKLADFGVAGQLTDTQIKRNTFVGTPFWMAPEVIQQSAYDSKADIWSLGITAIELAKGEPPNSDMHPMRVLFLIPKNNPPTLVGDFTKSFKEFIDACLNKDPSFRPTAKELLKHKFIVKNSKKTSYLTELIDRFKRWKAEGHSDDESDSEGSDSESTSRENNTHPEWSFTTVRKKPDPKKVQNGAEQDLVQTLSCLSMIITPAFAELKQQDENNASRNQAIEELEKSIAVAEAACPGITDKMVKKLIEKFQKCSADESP
Test: radiometric filter-binding kinase assay
Details: compound 100.0 µM; ATP 20 µM
The following compounds are listed with their measured inhibition values.
assay_endpoint: inhibition (%)

                         smiles_notation  unit_tag  quantitative_readout
0   O=c1c(NC(=S)NCc2ccccc2)cnc2[nH]ccn12         %                     0
1    CC(=O)Nc1nc2cnc(-c3c(C)cccc3C)cn2n1         %                     0
2              Nc1nc2cnc(-c3ccccc3)cn2n1         %                    41
3  CC(C)(C)Nc1c(COCc2ccccc2)nc2[nH]cnn12         %                     0
4          Cc1cccc(C)c1-c1cn2nc(N)nc2cn1         %                    21
5        CC(C)(C)Nc1c(C2CC2)nc2[nH]cnn12         %                     0
6        CC(=O)Nc1nc2cnc(-c3ccccc3)cn2n1         %                    16
7         O=c1cc(-c2ccccc2F)nc2[nH]ccn12         %                    13
8  COc1ccc(NC(=S)Nc2cnc3[nH]cnn3c2=O)cn1         %                     0

---

Biological target: UniProt:Q8IW41
Sequence (Q8IW41 whole entry, looked up): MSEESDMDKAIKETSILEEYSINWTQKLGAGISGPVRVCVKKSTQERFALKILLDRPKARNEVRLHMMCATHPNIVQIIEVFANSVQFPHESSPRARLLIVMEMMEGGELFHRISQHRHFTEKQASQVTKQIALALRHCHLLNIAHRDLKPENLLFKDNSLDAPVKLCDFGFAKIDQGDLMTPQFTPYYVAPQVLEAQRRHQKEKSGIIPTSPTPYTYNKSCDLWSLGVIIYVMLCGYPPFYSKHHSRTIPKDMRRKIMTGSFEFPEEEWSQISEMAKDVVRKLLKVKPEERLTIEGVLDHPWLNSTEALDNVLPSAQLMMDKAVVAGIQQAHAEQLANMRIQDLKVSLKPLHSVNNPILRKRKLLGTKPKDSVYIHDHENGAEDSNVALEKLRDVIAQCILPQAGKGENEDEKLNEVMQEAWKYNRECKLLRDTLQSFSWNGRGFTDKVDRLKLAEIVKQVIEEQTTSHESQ
Assay: radiometric filter-binding kinase assay
Conditions: compound 100.0 µM; ATP 20 µM
inhibition overview
assay_endpoint: inhibition

>>> df
                                    compound  result
 0       COc1ccc(-c2cc3c(=O)[nH]cnc3s2)cc1OC      5%
 1           CC(C)(C)Nc1c(C2CC2)nc2[nH]cnn12     13%
 2  O=C(c1cccc(-c2cc3c(=O)[nH]cnc3s2)c1)N1CCOCC1      0%
 3          O=C(Nc1cnc2[nH]cnn2c1=O)c1ccccc1      0%
 4     CC(C)(C)Nc1c(COCc2ccccc2)nc2[nH]cnn12     44%
 5                 Nc1nc2cnc(-c3ccccc3)cn2n1     34%
 6       CC(=O)Nc1nc2cnc(-c3c(C)cccc3C)cn2n1     17%
 7      O=c1c(NC(=S)NCc2ccccc2)cnc2[nH]ccn12      0%
 8             Cc1cccc(C)c1-c1cn2nc(N)nc2cn1     26%
 9            O=c1cc(-c2ccccc2F)nc2[nH]ccn12     13%
10     COc1ccc(NC(=S)Nc2cnc3[nH]cnn3c2=O)cn1      3%
11  CC1CN(c2nc3ccccn3c(=O)c2N)CC(C)O1 (stereo not given)     75%
12          O=C(Nc1cnc2[nH]ccn2c1=O)c1ccccc1     17%
13           CC(=O)Nc1nc2cnc(-c3ccccc3)cn2n1      6%
14          Nc1cnc2c(-c3c(F)cccc3F)cccn2c1=O     83%

---

Molecular target: GCK (human)
Assay: radiometric filter-binding kinase assay
Details: compound 100.0 µM; ATP 20 µM
assay_endpoint: inhibition (%)

                        smiles_notation  unit_tag  quantitative_readout
0  O=c1c(NC(=S)NCc2ccccc2)cnc2[nH]ccn12         %                     0
1       CC(=O)Nc1nc2cnc(-c3ccccc3)cn2n1         %                    39
2      Nc1cnc2c(-c3c(F)cccc3F)cccn2c1=O         %                    95

---

Measured inhibition by item
Target: MAP3K7 TAB1 (human) (UniProt Q15750+O43318)
Sequence (O43318 whole entry, looked up): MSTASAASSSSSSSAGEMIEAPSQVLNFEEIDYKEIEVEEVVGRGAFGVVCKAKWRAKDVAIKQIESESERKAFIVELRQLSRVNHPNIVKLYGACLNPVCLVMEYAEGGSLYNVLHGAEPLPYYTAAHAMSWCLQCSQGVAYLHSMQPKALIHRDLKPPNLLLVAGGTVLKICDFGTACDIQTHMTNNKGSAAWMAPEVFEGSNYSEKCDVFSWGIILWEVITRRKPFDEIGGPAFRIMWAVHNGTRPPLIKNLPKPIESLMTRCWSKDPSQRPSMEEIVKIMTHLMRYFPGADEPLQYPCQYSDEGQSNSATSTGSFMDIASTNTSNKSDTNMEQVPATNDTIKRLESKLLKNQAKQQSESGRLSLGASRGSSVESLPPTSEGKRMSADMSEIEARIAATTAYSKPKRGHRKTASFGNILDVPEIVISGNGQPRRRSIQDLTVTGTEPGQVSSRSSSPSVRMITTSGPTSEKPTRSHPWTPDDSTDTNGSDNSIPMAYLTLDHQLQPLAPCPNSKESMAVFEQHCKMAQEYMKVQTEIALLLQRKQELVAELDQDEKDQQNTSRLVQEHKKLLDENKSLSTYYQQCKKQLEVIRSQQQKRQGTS
Sequence (Q15750 whole entry, looked up): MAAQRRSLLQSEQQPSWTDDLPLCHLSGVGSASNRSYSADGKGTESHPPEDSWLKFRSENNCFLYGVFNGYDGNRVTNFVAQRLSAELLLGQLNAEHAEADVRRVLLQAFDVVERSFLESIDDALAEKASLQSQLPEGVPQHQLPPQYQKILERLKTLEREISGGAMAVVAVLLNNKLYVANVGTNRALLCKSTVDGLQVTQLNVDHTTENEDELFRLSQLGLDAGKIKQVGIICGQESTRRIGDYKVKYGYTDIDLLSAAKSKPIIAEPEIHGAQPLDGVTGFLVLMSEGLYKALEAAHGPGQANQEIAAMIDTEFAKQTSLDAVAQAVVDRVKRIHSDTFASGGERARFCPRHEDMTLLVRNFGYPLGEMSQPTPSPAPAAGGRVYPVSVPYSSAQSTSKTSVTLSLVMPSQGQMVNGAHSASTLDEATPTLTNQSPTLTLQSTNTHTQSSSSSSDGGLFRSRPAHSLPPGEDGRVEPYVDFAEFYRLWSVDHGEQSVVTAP
Assay: radiometric filter-binding kinase assay
Conditions: compound 100.0 µM; ATP 5 µM
assay_endpoint: inhibition (%)

In [3]: df
Out[3]:
                                   compound  quantitative_readout
0       COc1ccc(-c2cc3c(=O)[nH]cnc3s2)cc1OC                    45
1             Cc1cccc(C)c1-c1cn2nc(N)nc2cn1                     3
2                 Nc1nc2cnc(-c3ccccc3)cn2n1                    86
3  CC1CN(c2nc3ccccn3c(=O)c2N)CC(C)O1 (centres undefined)                     0
4          O=C(Nc1cnc2[nH]cnn2c1=O)c1ccccc1                    15
5           CC(=O)Nc1nc2cnc(-c3ccccc3)cn2n1                    30
6          O=C(Nc1cnc2[nH]ccn2c1=O)c1ccccc1                    26
7  O=C(c1cccc(-c2cc3c(=O)[nH]cnc3s2)c1)N1CCOCC1                    78
8     CC(C)(C)Nc1c(COCc2ccccc2)nc2[nH]cnn12                    31

---

Molecular target: UniProt:P51812
Sequence (P51812 whole entry, looked up): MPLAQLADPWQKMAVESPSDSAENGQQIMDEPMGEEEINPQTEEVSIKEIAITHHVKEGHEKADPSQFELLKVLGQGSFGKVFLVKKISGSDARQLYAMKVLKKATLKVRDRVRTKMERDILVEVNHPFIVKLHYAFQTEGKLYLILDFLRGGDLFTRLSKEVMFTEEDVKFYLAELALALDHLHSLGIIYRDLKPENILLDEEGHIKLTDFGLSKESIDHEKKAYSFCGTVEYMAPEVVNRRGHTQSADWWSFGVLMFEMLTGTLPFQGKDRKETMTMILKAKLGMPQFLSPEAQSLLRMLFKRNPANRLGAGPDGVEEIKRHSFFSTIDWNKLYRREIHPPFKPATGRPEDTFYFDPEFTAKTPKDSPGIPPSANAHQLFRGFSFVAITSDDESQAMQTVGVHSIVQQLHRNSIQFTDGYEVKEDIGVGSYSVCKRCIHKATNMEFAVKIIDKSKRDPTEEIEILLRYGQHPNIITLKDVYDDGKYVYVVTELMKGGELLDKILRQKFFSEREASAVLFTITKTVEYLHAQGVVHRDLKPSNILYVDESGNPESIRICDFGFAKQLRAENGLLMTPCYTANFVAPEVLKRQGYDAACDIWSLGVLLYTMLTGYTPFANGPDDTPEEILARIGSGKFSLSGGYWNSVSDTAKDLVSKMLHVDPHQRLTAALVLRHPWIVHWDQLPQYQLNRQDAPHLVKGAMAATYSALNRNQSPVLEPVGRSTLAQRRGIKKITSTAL
Assay: radiometric filter-binding kinase assay
Settings: compound 100.0 µM; ATP 50 µM
assay_endpoint: inhibition (%)

>>> print(df.to_string())
                       smiles_notation       tested_on  quantitative_readout
0  COc1ccc(-c2cc3c(=O)[nH]cnc3s2)cc1OC  UniProt:P51812                    52
1     Nc1cnc2c(-c3c(F)cccc3F)cccn2c1=O  UniProt:P51812                    52
2      CC(=O)Nc1nc2cnc(-c3ccccc3)cn2n1  UniProt:P51812                     9

---

Target: FGFR1 (human)
Test: radiometric filter-binding kinase assay
Conditions: compound 100.0 µM; ATP 20 µM
Reported inhibition values follow for various molecules
assay_endpoint: inhibition (%)

>>> print(df.to_string())
                                    molecule  quantitative_readout
 0     COc1ccc(NC(=S)Nc2cnc3[nH]cnn3c2=O)cn1                    25
 1       COc1ccc(-c2cc3c(=O)[nH]cnc3s2)cc1OC                    32
 2           CC(C)(C)Nc1c(C2CC2)nc2[nH]cnn12                    65
 3            O=c1cc(-c2ccccc2F)nc2[nH]ccn12                    41
 4          O=C(Nc1cnc2[nH]ccn2c1=O)c1ccccc1                    14
 5      O=c1c(NC(=S)NCc2ccccc2)cnc2[nH]ccn12                     6
 6       CC(=O)Nc1nc2cnc(-c3c(C)cccc3C)cn2n1                     3
 7  CC1CN(c2nc3ccccn3c(=O)c2N)CC(C)O1 (stereo not given)                    34
 8          O=C(Nc1cnc2[nH]cnn2c1=O)c1ccccc1                     0
 9           CC(=O)Nc1nc2cnc(-c3ccccc3)cn2n1                    45
10          Nc1cnc2c(-c3c(F)cccc3F)cccn2c1=O                    88
11                 Nc1nc2cnc(-c3ccccc3)cn2n1                    79
12             Cc1cccc(C)c1-c1cn2nc(N)nc2cn1                    42
13     CC(C)(C)Nc1c(COCc2ccccc2)nc2[nH]cnn12                    40
14  O=C(c1cccc(-c2cc3c(=O)[nH]cnc3s2)c1)N1CCOCC1                    57

---

Biological target: NUAK1 (human) (UniProt O60285)
Sequence (O60285 whole entry, looked up): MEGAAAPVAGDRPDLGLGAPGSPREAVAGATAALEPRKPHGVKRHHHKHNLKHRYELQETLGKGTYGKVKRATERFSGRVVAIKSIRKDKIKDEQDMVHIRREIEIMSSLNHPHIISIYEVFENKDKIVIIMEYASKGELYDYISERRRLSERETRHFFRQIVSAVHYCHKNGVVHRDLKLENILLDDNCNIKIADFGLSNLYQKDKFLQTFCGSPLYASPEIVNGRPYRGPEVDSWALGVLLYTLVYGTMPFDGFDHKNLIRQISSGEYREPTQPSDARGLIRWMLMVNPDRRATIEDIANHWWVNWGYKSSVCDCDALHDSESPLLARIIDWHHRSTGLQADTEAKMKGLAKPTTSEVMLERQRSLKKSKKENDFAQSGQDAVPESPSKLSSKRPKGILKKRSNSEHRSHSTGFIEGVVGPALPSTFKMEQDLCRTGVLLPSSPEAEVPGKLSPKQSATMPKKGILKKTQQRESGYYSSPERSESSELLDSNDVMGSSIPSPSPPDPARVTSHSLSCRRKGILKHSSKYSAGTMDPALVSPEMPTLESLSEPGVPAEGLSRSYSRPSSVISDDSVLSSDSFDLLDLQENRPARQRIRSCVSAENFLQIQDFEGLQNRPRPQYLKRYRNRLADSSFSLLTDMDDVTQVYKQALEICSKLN
Assay: radiometric filter-binding kinase assay
Details: compound 100.0 µM; ATP 20 µM
assay_endpoint: inhibition (%)

                       smiles_notation  assay_endpoint  quantitative_readout
0     Nc1cnc2c(-c3c(F)cccc3F)cccn2c1=O      inhibition                    76
1       O=c1cc(-c2ccccc2F)nc2[nH]ccn12      inhibition                     6
2  CC(=O)Nc1nc2cnc(-c3c(C)cccc3C)cn2n1      inhibition                     0
